Target: TNFa/TNFRI interaction (Homo sapiens)
Sequence (P01375 77-233 limits assumed): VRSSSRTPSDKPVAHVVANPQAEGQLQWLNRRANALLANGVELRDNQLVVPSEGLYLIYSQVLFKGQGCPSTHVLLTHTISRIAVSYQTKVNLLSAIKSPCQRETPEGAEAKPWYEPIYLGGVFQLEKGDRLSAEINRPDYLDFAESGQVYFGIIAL
Test: TNFa/TNFRI interaction displacement test
Format: binding
Conditions: compounds at 50 μM; human TNFRI 100 ng/ml
Procedure: Microtiter plates (96 wells) are covered with 100 μl per well of human TNFRI, at a concentration of 100 ng/ml, then incubated overnight at 4° C. […] After three washes, 100 μl of biotinylated anti-cytokine secondary antibody are added to each well and incubated for 2 h at 37° C. […] The plates are then read with a spectrophotometer at 450 nm, measuring the optical density (OD) for each well.
metric-name: Displacement (%)

Worked examples follow.
CN(CCCCCN(Cc1ccncc1)Cc1cn(S(=O)(=O)c2ccccc2)c2ccccc12)C1CCCCC1 | 181
O=S(=O)(c1ccccc1)n1cc(CN(CCCCCNC2CCCCC2)Cc2cccnc2F)c2ccccc21 | 124
O=S(=O)(c1ccccc1)n1cc(CN(CCCCNC2CCCCCCC2)Cc2cccnc2F)c2ccccc21 | 147

(a) O=S(=O)(c1ccccc1)n1cc(CN(CCCCNC2CCCCC2)Cc2ccnc(F)c2)c2ccccc21
(b) O=S(=O)(NCCCCN(Cc1cccnc1F)Cc1cn(S(=O)(=O)c2ccccc2)c2ccccc12)N1CCCCC1
(c) CCCCN(CCOCCN(Cc1cccnc1F)Cc1cn(S(=O)(=O)c2ccccc2)c2ccccc12)C1CCCC1
(d) NCCCCN(Cc1cn(S(=O)(=O)c2ccccc2)c2ccccc12)Cc1cn(S(=O)(=O)c2ccccc2)c2ccccc12
Input: Sort entries by Displacement (%) from minimum to maximum value. Give the labels in the order specified.
Output: b, d, a, c

(I) CN(CCCCN(Cc1ccncc1)Cc1cn(S(=O)(=O)c2ccccc2)c2ccccc12)C1CCCCC1
(II) CN1CCN(S(=O)(=O)n2cc(CN(CCOCCN(C)C3CCCCC3)Cc3cccnc3F)c3ccccc32)CC1
Input: // which entry reports the smaller Displacement (%), I or II ? // respond with label for picked entry
Output: I

---

target: IL-6 (Homo sapiens, UniProt P05231); assay: Immunoassay binding test, IL-6 (gp130 receptor, IL-6Ra present); settings: IL-6Ra 200 ng/ml
Sequence (P05231 30-212, species assumed): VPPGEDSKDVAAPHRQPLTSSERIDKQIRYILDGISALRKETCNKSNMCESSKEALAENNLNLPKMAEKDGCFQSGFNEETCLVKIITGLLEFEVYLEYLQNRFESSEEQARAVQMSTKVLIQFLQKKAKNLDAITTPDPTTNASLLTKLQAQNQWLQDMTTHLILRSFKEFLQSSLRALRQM
metric-name: BINDING IL6 % Neutra at 100 μM (%)

CN(CCCCN(Cc1cccnc1F)Cc1cn(S(=O)(=O)c2ccccc2)c2ncccc12)C1CCCCC1 | 0
CN(CCCCN(Cc1cccnc1F)Cc1cn(S(=O)(=O)c2ccccc2)c2ccccc12)C1CCCCCCC1 | 1
CN1CCN(C(=O)NCCCCN(Cc2cccnc2F)Cc2cn(S(=O)(=O)c3ccccc3)c3ccccc23)CC1 | 0

(P) O=[N+]([O-])c1ccccc1S(=O)(=O)NCCCN(Cc1cccnc1)Cc1cn(S(=O)(=O)c2ccccc2)c2ccccc12
(Q) O=S(=O)(NCCCCN(Cc1cccnc1F)Cc1cn(S(=O)(=O)c2ccccc2)c2ccccc12)N1CCCCCC1
Input: // which entry reports the smaller BINDING IL6 % Neutra at 100 μM, P or Q ? // respond with label for picked entry
Output: P
(P: 0%, Q: 1%)

---

target: IL-13 (Homo sapiens); experiment: Immunoassay binding test, IL-13; details: 100 μM
Sequence (P35225 25-146, species assumed): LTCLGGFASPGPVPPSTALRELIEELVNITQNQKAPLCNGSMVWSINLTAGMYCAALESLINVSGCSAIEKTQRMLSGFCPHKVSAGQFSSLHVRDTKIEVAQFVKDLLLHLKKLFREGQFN
metric-name: BINDING IL13 % Neutra at 100 μM (%)

CCN(CC)S(=O)(=O)NCCCCN(Cc1cccnc1F)Cc1cn(S(=O)(=O)c2ccccc2)c2ccccc12 | 0
NCCCCN(Cc1cn(S(=O)(=O)c2ccccc2)c2ccccc12)Cc1cn(S(=O)(=O)c2ccccc2)c2ccccc12 | 94.2

(A) O=S(=O)(NCCCCN(Cc1cccnc1F)Cc1cn(S(=O)(=O)c2ccccc2)c2ccccc12)N1CCOCC1
(B) O=S(=O)(c1ccccc1)n1cc(CN(CCCCNC2CCCCC2)Cc2cn(S(=O)(=O)c3ccccc3)c3ccccc23)c2ccccc21
(C) CN(CCN(Cc1ccncc1)Cc1cn(S(=O)(=O)c2ccccc2)c2ccccc12)C1CCCCC1
(D) O=S(=O)(c1ccccc1)n1cc(CN(CCNC2CCCCC2)Cc2ccncc2)c2ccccc21
Input: Sort entries by BINDING IL13 % Neutra at 100 μM from minimum to maximum value. Give the labels in the order specified.
Output: A, C, D, B
